# Tested on: PC-3 prostate
# Run description: NCI-60 one-dose screen, 48 h
# Stated conditions: 10 µM unless noted
Compounds without any hit were thinned out: in the full panel of roughly 83,000, 20% have a hit. Calls of active or inactive are those of the source. The calls were made as follows: active = growth percent below 10; inactive = the rest. Where a SMILES comes first, the peptide text is derived from it. The star is where a group is joined. Trt = c1ccc(C(c2ccccc2)(c2ccccc2)*)cc1; Cbz = O=C(OCc1ccccc1)*
Classes used: yes (1) = active, no (0) = inactive

>>> label_class("O=C1c2ccccc2C(=O)N1c1ccccc1")
"no (0)"
>>> label_class("Cc1ccc(C(=Nc2ccccc2)N=P(c2ccccc2)(c2ccccc2)c2ccccc2)cc1")
"yes (1)"
>>> label_class("O=C(Nc1ccc(F)cc1)ON=C1CCCCC1")
"no (0)"
>>> label_class("O=C(Nc1ccccc1)c1cc(Cl)ccc1O")
"no (0)"
>>> label_class("N#Cc1ccc([N+](=O)[O-])o1")
"no (0)"
>>> label_class("CNc1ccc(N)cc1")
"no (0)"
>>> label_class("CCCCCC(CCCCC)C(=O)O")
"no (0)"
>>> label_class("CN(C)c1ccc(C(=C2C=CC(=[N+](C)C)C=C2)c2ccc(N(C)C)cc2)cc1 (tested in a mixture with another compound)")
"yes (1)"
>>> label_class("NC(=O)/C=C/C(=O)c1c(Cl)cccc1Cl")
"yes (1)"
>>> label_class("N#CC1C(=O)SC2c3ccccc3C(=O)c3ccccc3C12 (stereo not drawn)")
"no (0)"
>>> label_class("COC(=O)c1nc(=S)[nH]c(C(=O)OC)c1C(=O)c1ccc2ccccc2c1")
"no (0)"
>>> label_class("COC(=O)C(CSC(c1ccccc1)(c1ccccc1)c1ccccc1)NC(=O)C(CC(N)=O)NC(=O)OCc1ccccc1 (stereo not drawn) (Cbz-Asn-Cys(Trt)-OMe; configuration not given here)")
"no (0)"
>>> label_class("Cn1c2c(c3ccccc31)CCN1C[C@@H]3CCCC[C@H]3C[C@@H]21")
"no (0)"
